Source of measurements: ChEMBL document CHEMBL5120972

target.or.system: UniProt Q7LFL8
Sequence (Q7LFL8 whole entry): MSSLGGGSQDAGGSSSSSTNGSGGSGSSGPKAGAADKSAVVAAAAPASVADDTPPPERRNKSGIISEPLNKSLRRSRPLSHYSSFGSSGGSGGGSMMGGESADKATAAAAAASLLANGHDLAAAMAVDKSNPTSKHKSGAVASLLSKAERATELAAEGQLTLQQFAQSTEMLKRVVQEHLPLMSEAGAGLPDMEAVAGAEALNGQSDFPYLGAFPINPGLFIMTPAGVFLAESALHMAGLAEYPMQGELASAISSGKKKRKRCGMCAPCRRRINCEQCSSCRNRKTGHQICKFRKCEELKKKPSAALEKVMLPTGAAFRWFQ
Please respond with Met when measured IC50 is strictly beneath 40 µM, and with Not met in all other cases.

Confirm or reject: IC50 of C=CC(=O)N1CCC(C(=O)O)(c2ccccc2)CC1 lies strictly below 40 µM Met

Please let me know if C=CC(=O)N1CCC(C(=O)O)(c2ccc(Cl)cc2)CC1 shows IC50 below 40 µM. Not met

Below 40 µM on IC50? Entry C=CC(=O)N1CCC(C(=O)O)(c2ccc(OC)cc2)CC1 Not met

Find out if reported IC50 for C=CC(=O)N1CCC(C(=O)O)(c2ccc(OCC)cc2)CC1 is less than 40 µM Met

Item C=CC(=O)N1CCC(c2ccccc2)(c2nnn[nH]2)CC1 : IC50 beneath 40 µM, strictly? Met

----------
target.or.system: Methylcytosine dioxygenase TET3 (Homo sapiens)
Sequence (O43151 whole entry): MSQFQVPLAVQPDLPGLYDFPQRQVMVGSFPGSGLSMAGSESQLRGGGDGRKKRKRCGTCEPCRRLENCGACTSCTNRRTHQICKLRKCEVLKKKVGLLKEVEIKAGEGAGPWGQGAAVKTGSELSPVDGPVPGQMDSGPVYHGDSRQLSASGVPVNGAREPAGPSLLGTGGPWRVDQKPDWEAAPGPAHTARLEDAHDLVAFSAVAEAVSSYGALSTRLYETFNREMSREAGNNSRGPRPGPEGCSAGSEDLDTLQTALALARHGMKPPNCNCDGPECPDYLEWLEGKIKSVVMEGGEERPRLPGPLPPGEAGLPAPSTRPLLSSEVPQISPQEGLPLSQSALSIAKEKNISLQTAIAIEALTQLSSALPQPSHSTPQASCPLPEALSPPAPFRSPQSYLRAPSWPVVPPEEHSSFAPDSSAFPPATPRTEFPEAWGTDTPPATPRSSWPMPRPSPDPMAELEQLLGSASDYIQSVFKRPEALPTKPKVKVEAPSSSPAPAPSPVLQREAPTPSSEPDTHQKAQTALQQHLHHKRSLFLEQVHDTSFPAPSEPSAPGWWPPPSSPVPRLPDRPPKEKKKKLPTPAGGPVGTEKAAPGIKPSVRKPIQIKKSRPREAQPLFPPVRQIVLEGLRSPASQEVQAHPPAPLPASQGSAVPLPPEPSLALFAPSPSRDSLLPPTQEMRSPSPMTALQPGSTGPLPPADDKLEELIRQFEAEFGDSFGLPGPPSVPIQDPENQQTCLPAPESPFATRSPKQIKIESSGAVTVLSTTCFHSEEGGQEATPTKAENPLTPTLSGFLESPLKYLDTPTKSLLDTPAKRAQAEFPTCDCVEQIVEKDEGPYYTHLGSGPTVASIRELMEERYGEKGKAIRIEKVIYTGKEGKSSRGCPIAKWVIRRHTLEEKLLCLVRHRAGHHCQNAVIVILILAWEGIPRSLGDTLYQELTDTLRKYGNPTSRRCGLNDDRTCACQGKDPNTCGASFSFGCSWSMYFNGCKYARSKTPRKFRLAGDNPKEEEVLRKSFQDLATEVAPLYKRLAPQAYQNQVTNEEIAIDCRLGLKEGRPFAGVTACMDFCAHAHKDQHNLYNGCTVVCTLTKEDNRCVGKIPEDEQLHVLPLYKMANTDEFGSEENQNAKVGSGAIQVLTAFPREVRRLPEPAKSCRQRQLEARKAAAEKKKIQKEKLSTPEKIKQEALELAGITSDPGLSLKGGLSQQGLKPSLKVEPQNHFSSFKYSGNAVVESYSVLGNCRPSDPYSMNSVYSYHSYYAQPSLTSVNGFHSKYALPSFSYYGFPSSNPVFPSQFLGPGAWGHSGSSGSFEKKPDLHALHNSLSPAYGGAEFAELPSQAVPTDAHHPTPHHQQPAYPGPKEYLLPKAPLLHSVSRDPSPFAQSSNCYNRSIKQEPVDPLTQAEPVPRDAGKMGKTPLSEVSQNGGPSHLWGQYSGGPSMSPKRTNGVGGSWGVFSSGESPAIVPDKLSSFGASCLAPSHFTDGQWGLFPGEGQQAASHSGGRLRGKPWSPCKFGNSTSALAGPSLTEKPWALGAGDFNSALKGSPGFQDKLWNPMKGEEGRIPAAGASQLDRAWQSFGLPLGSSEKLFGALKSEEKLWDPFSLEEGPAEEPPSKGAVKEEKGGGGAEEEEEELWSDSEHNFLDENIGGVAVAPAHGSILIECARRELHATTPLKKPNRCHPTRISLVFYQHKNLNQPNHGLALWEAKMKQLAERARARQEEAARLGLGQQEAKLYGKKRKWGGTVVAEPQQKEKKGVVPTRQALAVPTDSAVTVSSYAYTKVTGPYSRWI
pIC50: −log10 of the molar value.
Quick rule: pIC50 of at least 5 means YES, below that means NO.

# check: pIC50 of C=CC(=O)N1CCC(C(=O)O)(c2ccc(OCC)cc2)CC1 is greater than or equal to 5 YES

# bool: pIC50 of C=CC(=O)N1CCC(c2ccccc2)(c2nnn[nH]2)CC1 >= 5 YES

Is pIC50 for C=CC(=O)N1CCC(C(=O)O)(c2ccccc2)CC1 at or above 5? YES

Tell me whether pIC50 is at least 5 here: C=CC(=O)N1CCC(C(=O)O)(c2ccc(Cl)cc2)CC1 NO

Quick check: does C=CC(=O)N1CCC(c2cccc(OCC)c2)(c2nnn[nH]2)CC1 have pIC50 greater than or equal to 5? YES

Test whether the molecule C=CC(=O)N1CCC(C(=O)O)(c2ccc(OC)cc2)CC1 records pIC50 of 5 or higher. NO

----------
target.or.system: Methylcytosine dioxygenase TET1 (Homo sapiens)
Sequence (Q8NFU7 whole entry): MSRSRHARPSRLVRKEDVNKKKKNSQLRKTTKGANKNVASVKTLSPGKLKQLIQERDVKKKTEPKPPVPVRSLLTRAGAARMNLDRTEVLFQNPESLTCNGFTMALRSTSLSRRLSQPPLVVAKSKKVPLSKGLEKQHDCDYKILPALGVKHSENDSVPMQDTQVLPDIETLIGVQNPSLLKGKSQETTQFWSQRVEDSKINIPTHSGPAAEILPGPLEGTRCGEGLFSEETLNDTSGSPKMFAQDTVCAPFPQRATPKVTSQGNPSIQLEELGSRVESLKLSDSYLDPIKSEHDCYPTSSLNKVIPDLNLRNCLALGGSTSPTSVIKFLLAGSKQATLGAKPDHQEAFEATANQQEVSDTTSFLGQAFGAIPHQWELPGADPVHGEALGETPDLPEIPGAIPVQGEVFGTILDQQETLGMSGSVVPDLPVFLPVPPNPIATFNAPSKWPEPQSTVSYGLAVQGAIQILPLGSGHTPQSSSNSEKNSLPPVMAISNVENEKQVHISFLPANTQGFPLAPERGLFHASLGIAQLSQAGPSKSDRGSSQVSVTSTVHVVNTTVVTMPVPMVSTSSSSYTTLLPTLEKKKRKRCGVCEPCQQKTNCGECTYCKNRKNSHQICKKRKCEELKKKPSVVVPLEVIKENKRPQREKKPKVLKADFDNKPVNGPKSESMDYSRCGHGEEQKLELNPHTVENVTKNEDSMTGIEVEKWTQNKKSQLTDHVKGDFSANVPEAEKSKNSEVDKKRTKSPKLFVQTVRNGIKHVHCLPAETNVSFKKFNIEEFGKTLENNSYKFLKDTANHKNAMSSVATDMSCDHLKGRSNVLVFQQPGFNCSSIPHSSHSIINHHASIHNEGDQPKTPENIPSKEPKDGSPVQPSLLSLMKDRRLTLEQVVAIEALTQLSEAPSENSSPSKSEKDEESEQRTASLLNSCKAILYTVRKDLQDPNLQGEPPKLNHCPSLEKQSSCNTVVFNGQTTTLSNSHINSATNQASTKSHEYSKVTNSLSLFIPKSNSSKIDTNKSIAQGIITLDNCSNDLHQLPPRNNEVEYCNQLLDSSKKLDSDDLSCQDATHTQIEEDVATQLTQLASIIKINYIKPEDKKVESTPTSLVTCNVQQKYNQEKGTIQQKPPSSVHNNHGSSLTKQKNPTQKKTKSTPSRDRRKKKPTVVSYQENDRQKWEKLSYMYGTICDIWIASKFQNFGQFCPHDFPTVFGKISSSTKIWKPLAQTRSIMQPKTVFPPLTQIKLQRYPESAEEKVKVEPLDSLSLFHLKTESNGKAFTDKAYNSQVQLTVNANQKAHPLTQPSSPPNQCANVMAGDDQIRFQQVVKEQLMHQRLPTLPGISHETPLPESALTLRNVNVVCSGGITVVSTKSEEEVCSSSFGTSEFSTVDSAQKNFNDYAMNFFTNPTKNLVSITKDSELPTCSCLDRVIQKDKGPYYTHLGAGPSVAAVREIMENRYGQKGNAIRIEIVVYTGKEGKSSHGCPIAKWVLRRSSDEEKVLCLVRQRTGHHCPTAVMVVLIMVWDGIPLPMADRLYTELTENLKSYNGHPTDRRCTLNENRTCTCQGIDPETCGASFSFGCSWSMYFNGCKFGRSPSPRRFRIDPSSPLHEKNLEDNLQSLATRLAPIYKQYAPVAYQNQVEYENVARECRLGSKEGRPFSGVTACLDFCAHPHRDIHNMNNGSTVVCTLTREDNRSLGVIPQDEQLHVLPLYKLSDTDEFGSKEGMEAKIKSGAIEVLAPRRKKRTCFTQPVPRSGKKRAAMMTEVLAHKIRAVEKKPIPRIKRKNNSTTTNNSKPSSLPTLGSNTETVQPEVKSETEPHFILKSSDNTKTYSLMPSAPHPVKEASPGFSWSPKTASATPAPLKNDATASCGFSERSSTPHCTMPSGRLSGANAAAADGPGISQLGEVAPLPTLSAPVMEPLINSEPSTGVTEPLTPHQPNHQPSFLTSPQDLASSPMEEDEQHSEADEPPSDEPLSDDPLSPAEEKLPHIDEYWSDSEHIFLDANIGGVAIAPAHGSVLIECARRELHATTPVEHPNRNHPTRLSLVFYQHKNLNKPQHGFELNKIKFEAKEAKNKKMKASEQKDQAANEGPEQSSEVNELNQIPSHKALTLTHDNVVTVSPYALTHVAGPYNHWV
Threshold 20 µM. IC50 below it: criterion met. IC50 at it or above: criterion not met.

Take the compound C=CC(=O)N1CCC(c2ccc(OC)cc2)(c2nnn[nH]2)CC1 and say whether its IC50 is less than 20 µM. criterion not met

Does this compound meet the criterion IC50 < 20 µM? C=CC(=O)N1CCC(C(=O)O)(c2ccc(OCC)cc2)CC1 criterion met

Is 20 µM strictly greater than the compound's reported IC50? compound: C=CC(=O)N1CCC(C(=O)O)(c2ccccc2)CC1 criterion met

Input C=CC(=O)N1CCC(C(=O)O)(c2ccc(OC)cc2)CC1 ; condition: IC50 strictly below 20 µM. Does it hold? criterion not met

Report whether reported IC50 is lower than 20 µM (strictly) for C=CC(=O)N1CCC(c2cccc(OCC)c2)(c2nnn[nH]2)CC1 criterion met

Lab note: confirm whether the reported IC50 for this compound is below 20 µM, equality not counting. compound: C=CC(=O)N1CCC(C(=O)NS(=O)(=O)c2ccccc2)(c2ccccc2)CC1 criterion not met

For C=CC(=O)N1CCC(c2ccc(OCC)cc2)(c2nnn[nH]2)CC1 , is the recorded IC50 below the cut-off of 20 µM? criterion not met

In plain terms, does C=CC(=O)N1CCC(C(=O)O)(c2ccc(Cl)cc2)CC1 come in under 20 µM for IC50? criterion not met

----------
target.or.system: Histone-lysine N-methyltransferase 2A (Homo sapiens, UniProt Q03164)
Values of IC50 strictly less than 20 µM map to yes, and values of at least 20 µM map to no.

Given the entry C=CC(=O)N1CCC(C(=O)O)(c2ccccc2)CC1 , would its reported IC50 be below 20 µM? yes

Record C=CC(=O)N1CCC(C(=O)O)(c2ccc(N(C)C)cc2)CC1 : is its IC50 strictly below 20 µM? no

Given the entry C=CC(=O)N1CCC(c2ccccc2)(c2nnn[nH]2)CC1 , would its reported IC50 be below 20 µM? yes

IC50 under 20 µM? Item: C=CC(=O)N1CCC(C(=O)O)(c2cccc(OCC)c2)CC1 no

Threshold test, IC50 < 20 µM: C=CC(=O)N1CCC(c2ccc(OC)cc2)(c2nnn[nH]2)CC1 yes

Could you please tell me whether IC50 recorded for C=CC(=O)N1CCC(C(=O)O)(c2ccc(OCC)cc2)CC1 is less than 20 µM? yes

State whether 20 µM exceeds IC50 recorded for C=CC(=O)N1CCC(C(=O)O)(c2ccc(C)cc2)CC1 . no

Does this compound meet the criterion IC50 < 20 µM? C=CC(=O)N1CCC(c2cccc(OCC)c2)(c2nnn[nH]2)CC1 yes

Given the entry C=CC(=O)N1CCC(C(=O)O)(c2ccc(Cl)cc2)CC1 , would its reported IC50 be below 20 µM? no

Lab note: IC50 threshold 20 µM. Does this compound come in strictly under it? C=CC(=O)N1CCC(C(=O)O)(c2ccc(OC)cc2)CC1 no
